Peptide text beside a SMILES is read from it.
Parameter 'readout' = pIC50; parameter 'system' = UniProt P27487.
Sequence (P27487 whole entry): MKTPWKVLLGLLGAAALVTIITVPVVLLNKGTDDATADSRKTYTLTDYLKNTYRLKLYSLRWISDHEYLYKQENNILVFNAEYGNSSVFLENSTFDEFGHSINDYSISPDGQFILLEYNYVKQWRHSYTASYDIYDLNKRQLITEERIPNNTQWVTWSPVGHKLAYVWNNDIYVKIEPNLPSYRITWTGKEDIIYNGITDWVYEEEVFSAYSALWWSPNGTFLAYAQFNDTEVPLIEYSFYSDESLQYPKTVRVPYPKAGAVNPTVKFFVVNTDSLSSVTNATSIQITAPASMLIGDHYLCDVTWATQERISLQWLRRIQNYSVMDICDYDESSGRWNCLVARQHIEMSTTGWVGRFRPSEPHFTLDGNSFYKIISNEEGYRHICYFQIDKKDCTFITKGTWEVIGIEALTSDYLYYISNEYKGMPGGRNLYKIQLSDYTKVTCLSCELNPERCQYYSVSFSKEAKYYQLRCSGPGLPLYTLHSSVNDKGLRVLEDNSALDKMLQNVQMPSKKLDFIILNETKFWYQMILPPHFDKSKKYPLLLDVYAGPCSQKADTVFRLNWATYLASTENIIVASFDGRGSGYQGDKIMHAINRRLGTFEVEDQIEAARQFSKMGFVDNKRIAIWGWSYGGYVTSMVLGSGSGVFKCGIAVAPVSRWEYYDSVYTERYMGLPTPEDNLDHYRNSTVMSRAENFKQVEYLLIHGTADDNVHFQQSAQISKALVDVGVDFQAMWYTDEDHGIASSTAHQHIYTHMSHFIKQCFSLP
Give bare numbers, as −log10 of the molar value.

Record excerpt, results attached:
compound="CC(C)C[C@H](NC(=O)[C@H](C)NC(=O)[C@H](CC(C)C)NC(=O)CNC(=O)[C@@H]1CCCN1C(=O)[C@@H](N)C(C)C)C(=O)O [VPGLAL] (H-VPGLAL-OH)" tested_target="UniProt P27487" numeric_result=3.54
compound="CC(C)C[C@H](NC(=O)[C@H](CCC(N)=O)NC(=O)[C@H](CC(C)C)NC(=O)[C@@H](N)Cc1c[nH]c2ccccc12)C(=O)O [WLQL] (H-WLQL-OH)" tested_target="UniProt P27487" numeric_result=3.36
compound="CC(C)C[C@H](N)C(=O)N1CCC[C@H]1C(=O)N[C@@H](CO)C(=O)N[C@@H](Cc1c[nH]c2ccccc12)C(=O)O [LPSW] (H-LPSW-OH)" tested_target="UniProt P27487" numeric_result=3.57

Q. I'd like to know its pIC50. The compound in question is CC(C)C[C@H](NC(=O)[C@@H]1CCCN1C(=O)[C@@H](N)CC(C)C)C(=O)N[C@@H](Cc1ccccc1)C(=O)O [LPLF] (H-LPLF-OH)
A. 3.33

Each recorded value in this set is attributed to paper PMC7602288.
